Where do these numbers come from? They come from PubChem BioAssay (NCI).

For each record, write down the corresponding GI50.
# System: NCI-H460 lung

NCI-H460 lung assay, molecule `COc1ccc(-c2nnc(SCC(=O)Nc3ccc(C(=O)/C=C/c4cc(OC)c(OC)c(OC)c4)cc3)n2-c2ccccc2)cc1OC` , recorded GI50 = 8540 nM

Result for `Cc1ccc(-c2cc(-c3ccc(C)cc3)nc(N3CCN(CCNc4ccnc5cc(Cl)ccc45)CC3)n2)cc1` , tested on NCI-H460 lung, GI50: 2210 nM

Short answer on NCI-H460 lung for `COc1cc(/C(=C2/O[C@@H]([C@H]3COC(C)(C)O3)[C@H]3OC(C)(C)O[C@@H]23)c2ccc3c(c2)OCO3)cc(OC)c1OC` , GI50: > 25000 nM

I looked up `O=C(Cc1csc2nc(-c3ccc(Br)cc3)cn12)N/N=C/c1ccc(Cl)cc1Cl` and its GI50 for NCI-H460 lung was > 100000 nM

The value of GI50 recorded for O=C1CC(c2ccsc2)c2snc(-c3ccc(Cl)cc3)c2N1 (stereo not drawn) when tested on NCI-H460 lung reads 581 nM

Dear colleague, could you please provide GI50 for the molecules listed below?
1. COc1cc(OC)c(F)c(COc2cnc(Nc3cnn(CCO)c3)nc2)c1F
2. Nc1nc(-c2ccc(Cl)cc2)cc(-c2ccc(Cl)cc2)c1-c1nc2ccccc2o1
3. COc1ccc2c(c1)C(=O)c1c-2c(N2CCN(C(=O)CNCCN(C)C)CC2)nc2ccccc12

Response given:
1. 444 nM
2. 16800 nM
3. 1170 nM
